# measurement_target: Protein translocase subunit SecA (Escherichia coli (strain K12))
# protocol_summary: Assay to Identify E. coli SecA ATPase Inhibitors
# Assay type: functional
# Design: scale not given: direction of the effect not stated beside the values
# conditions_used: 30 µM
Potency and affinity values are given separately.
parameter: Percent Effect (%)
Number only, in %; omit the unit.

CCCc1cc(=O)n(CC(N)=O)c(-n2nc(C)cc2C)n1 : -1.73

Percent Effect for Cc1cc(CN(C)C(=O)NC2CCCN(c3ncccn3)C2)no1 (centres undefined) is -1.33

Reported Percent Effect of `Cc1nc(N2CCN(C(=O)C3CC3)CC2)c2c(n1)c(C)nn2C` : -1.08

# Percent Effect (compound: Cc1nccn1CCC1CCCCN1Cc1ccc(N(C)C)nc1 (centres undefined) ) is -1.41

Data point: `COCC(=O)N1Cc2cnc(Cc3ccc(OC)cc3)nc2C1` ; Percent Effect = -5.39

Entry Cc1cnc(CN(C)C2CCN(CCc3cnn(C)c3)C2)o1 (centres undefined) ; Percent Effect = -3.84

Entry under test: `COCc1nc(N(C)C)ncc1C(=O)NC(C)C` . Its Percent Effect was -5.73

Record `Cc1cccc(CN2CCc3c(nc(N4CCC(C)CC4)[nH]c3=O)C2)n1` . Reported Percent Effect: -4.27

Looking up CCn1cc(NC(=O)NCC(c2cccc(F)c2)N(C)C)cn1 (centres undefined) , I found its Percent Effect recorded as 0.401

Entry O=C1CCSCC(C(=O)N2CCOCC2)N1 (centres undefined) , Percent Effect reported as -5.1

Record CC(C)c1cc(CNC(=O)N2CCC(Cc3cnn(C)c3)C2)on1 (centres undefined) . Reported Percent Effect: -5.49

The recorded Percent Effect for Cn1cc(C2CC(=O)NC23CCN(CC2CC2)CC3)cn1 (centres undefined) is -4.62

Percent Effect recorded for this compound, CC(O)CN1CCC(CNCc2cccc(OC(C)C)c2)CC1 (centres undefined) , is -8.77

Reported Percent Effect for Cc1nn(C)c(C)c1C1CCCN1C(=O)c1ccc(Cl)o1 (centres undefined) was -4.75

Quick note, Percent Effect for `COC(=O)CCc1c(C)nc2cc(O)nn2c1C` landed at -4.39

# compound CNCC(=O)N1CCCC(c2cccc(Nc3nc(C)cc(C)n3)n2)C1 (centres undefined) ; its Percent Effect = -3.22
